# GI50 annotations
# System: A498
# Assay Comment: NCI tumour cell line growth inhibition, 48 h
Where a name gives a salt, the structure may show the parent alone. Activity calls are given as the source filed them. Cut-off read from the data, not from the text of the source: active = GI50 up to about 1.1 µM and inactive = higher.

Record excerpt, results attached:
{"Molecule": "COC(=O)[C@@]12C(=O)C(C)C(=O)[C@]1(C)C(C)=C[C@H]1[C@]3(C=O)CC[C@H](OC(C)=O)C(C)(C)[C@H]3CC[C@@]12C (stereo partly drawn)", "GI50": "> 100 µM (inactive)"}
{"Molecule": "CN1CCC(CN2c3ccccc3Sc3ccccc32)C1 (stereo not drawn) [METHDILAZINE HYDROCHLORIDE]", "GI50": "13.1 µM (inactive)"}
{"Molecule": "O=C(O)CSSCC(=O)O", "GI50": "> 100 µM (inactive)"}
{"Molecule": "O=C(/C=C/c1ccc2c(c1)OCO2)CC(=O)C(=O)c1c[nH]c2ccccc12", "GI50": "65.5 µM (inactive)"}
{"Molecule": "O=C(c1ccccc1)C(Nc1ccc2ccccc2c1)c1ccccc1 (stereo not drawn)", "GI50": "21.3 µM (inactive)"}

Look up GI50 of C[C@@H](CC(O)C(O)C(C)(C)O)C1CCC23CC12CCC1[C@@]2(C)CCC(=O)C(C)(C)C2CC(OC2OC(CO)C(O)C(O)C2O)[C@]13C (stereo partly drawn) and report it.
> 10 µM (inactive)

Respond only with GI50 recorded for O=C1C(CN2CCCC2)CCC1CN1CCCC1 (stereo not drawn)
> 100 µM (inactive)

Return value of GI50 for input "CC(C)[C@@H](C)[C@@]1(C)C[C@@H]1[C@@H](C)[C@H]1CC[C@@H]([C@@H]2CC=C3C[C@@H](O)CC[C@]3(C)C2=O)[C@]1(C)CCO" , no commentary.
15.3 µM (inactive)

---

// GI50 lookup, one value per entry
# Test system: UACC-62
# Assay Comment: NCI tumour cell line growth inhibition, 48 h
Calls of active or inactive are those of the source. Rule as the data show it: active = GI50 up to about 1.1 µM and inactive = higher.

Quote UACC-62 GI50 for entry ClC1c2ccccc2C2(c3ccccc3)OOC1(c1ccccc1)O2 (stereo not given) .
1.87 µM (inactive)

GET GI50 where system = UACC-62 and item = "O=S(=O)(O)C(F)(F)C(F)(F)C(F)(F)C(F)(F)F"
> 100 µM (inactive)

Report its GI50 with UACC-62 as the test system: "CC(C)(NO)/C(=N\O)c1ccco1"
> 100 µM (inactive)

Using UACC-62 as the test system, report measured GI50 of "CCCCCCCC[N+](C)(C)Cc1ccc(C[N+](C)(C)CCCCCCCC)cc1" .
77.8 µM (inactive)

Lab note: record GI50 of O=C1NC(Cc2c[nH]c3ccccc23)C(=O)N2C(C3CCCCC3)c3[nH]c4ccccc4c3C[C@@H]12 (stereo not given in full) tested on UACC-62.
15.3 µM (inactive)

Name the recorded GI50 of CC1=CC2CCC1(C)C/C2=C(/C)OC=O (stereo not given) , assay system UACC-62.
> 100 µM (inactive)

Provide measured GI50 on UACC-62 for "Cc1cc(=O)c2cc(/N=C/c3ccc([N+](=O)[O-])o3)ccc2o1" please.
56.1 µM (inactive)

Supply GI50 measured with UACC-62 for CCN1CC2(C)CCC(OC)C34C5CC6CCC(O)(C5C(=O)O6)C(C(O)C23)C14 (stereo not given) .
> 100 µM (inactive)

For UACC-62, give the measured GI50 of the entry N#CC(C(=O)CCC(=O)Nc1cccc(C(F)(F)F)c1)c1ccccc1 (stereo not given)
> 100 µM (inactive)

Give reported GI50 for "COc1ccc(-c2c(C#N)c(-c3ccc(C)cc3)n(NS(=O)(=O)c3ccccc3)c(=O)c2C#N)cc1" (UACC-62)
38.5 µM (inactive)

---

// GI50 lookup, one value per entry
# Test system: MDA-N
# Assay Comment: NCI tumour cell line growth inhibition, 48 h
Activity calls are given as the source filed them. Cut-off read from the data, not from the text of the source: active = GI50 up to about 1.1 µM and inactive = higher.

Known results for compounds:
{"Compound": "COc1cc(C(C[N+](=O)[O-])SC(C)=O)ccc1OCc1ccccc1 (centres undefined)", "Measured Attribute": "GI50", "Val": "2.88 µM (inactive)"}
{"Compound": "Cc1ccc(S(=O)(=O)NC(=O)NC(Cc2ccc(O)c(O)c2)C(=O)O)cc1 (centres undefined)", "Measured Attribute": "GI50", "Val": "> 100 µM (inactive)"}
{"Compound": "O=c1[nH]c(Nc2nc3ccccc3[nH]2)nc(O)c1-c1ccccc1", "Measured Attribute": "GI50", "Val": "> 100 µM (inactive)"}
{"Compound": "C[n+]1c(-c2ccc(/C=N/NC(=O)C(=O)N/N=C/c3ccc(-c4cn5ccccc5[n+]4C)cc3)cc2)cn2ccccc21", "Measured Attribute": "GI50", "Val": "> 100 µM (inactive)"}
{"Compound": "O=[N+]([O-])c1ccc(CSC2=C(c3ccc(Cl)cc3)S/C(=C3\\SC(SCc4ccc([N+](=O)[O-])cc4)=C(c4ccc(Cl)cc4)S3)S2)cc1", "Measured Attribute": "GI50", "Val": "> 100 µM (inactive)"}

Give me measured GI50, please, for this compound: Fc1cc2nc3n(c2cc1F)C(c1c(F)cccc1F)SC3 (centres undefined)
35.6 µM (inactive)

Provide one value: measured GI50 of "COc1cccc2c1CCc1c(-c3ccc(F)cc3)cc(-c3ccc4ccccc4n3)nc1-2"
> 100 µM (inactive)

Report GI50 for CC(Oc1ccccc1Cl)C(=O)NN1C(=O)CC(=O)NC1=S (centres undefined)
> 100 µM (inactive)

Give the reported GI50 for this compound. "N#CC(C#N)=c1c(=O)c2c3ccccc3cc3cccc1c32"
> 100 µM (inactive)

---

# System: SK-MEL-5
# Assay Comment: NCI tumour cell line growth inhibition, 48 h
The source made the active and inactive calls. Cut-off read from the data, not from the text of the source: active = GI50 up to about 1.1 µM and inactive = higher.
Select the correct class. Options are yes for active, no for inactive and nothing else.

Answered cases to consult:
{"Compound": "C=[N+](CNC(=O)CNC(=O)C(Cc1ccc([N+](=O)[O-])cc1)NC(=O)OC(C)(C)C)C(=O)CNC(=O)C(Cc1ccc([N+](=O)[O-])cc1)NC(=O)OC(C)(C)C (stereo not given)", "Tgt": "SK-MEL-5", "Qualitative Label": "no"}
{"Compound": "O=C(O)c1cccc(S(=O)(=O)NCCO)c1", "Tgt": "SK-MEL-5", "Qualitative Label": "no"}
{"Compound": "O=C1NC(Cc2c[nH]c3ccccc23)C(=O)N2C(C3CCCCC3)c3[nH]c4ccccc4c3C[C@@H]12 (stereo not given in full)", "Tgt": "SK-MEL-5", "Qualitative Label": "no"}
{"Compound": "CC(=O)CC(=O)/C=C/c1cccs1", "Tgt": "SK-MEL-5", "Qualitative Label": "no"}
{"Compound": "CCOC(=O)C1=C(OC(OCC)C(CC)[Se]c2ccccc2)CCCC1 (stereo not given)", "Tgt": "SK-MEL-5", "Qualitative Label": "no"}

What is the recorded call for this compound in the test? "O=c1[nH]c(Nc2nc3ccccc3[nH]2)nc(O)c1-c1ccccc1"
no

What classification did "CCO/C([O-])=C(/C=O)[n+]1c(C)n(C)c2ccccc21" end up with in this test?
no

Could you kindly confirm the outcome this assay logged for CC(C)CC1NC(=O)CCC(NC(=O)C(Cc2ccc(O)cc2)NC(=O)OCc2ccccc2)C(=O)NC(Cc2ccccc2)C(=O)NC(Cc2ccccc2)NC1=O (stereo not given) ?
no

Name the outcome recorded for NC(=O)N/N=C(\CC1OC(=O)c2ccccc21)c1ccc([N+](=O)[O-])cc1 (stereo not given) in the assay.
no

In this assay, the call recorded for "CCN(CC)CCCNc1nc2ccccc2[n+]([O-])n1" was what?
no

What was the test verdict on "COC(Cc1cc(C(O)(c2ccc(C(C)(C)C)cc2)c2cc(CC(OC)(c3cc(C(OC)(c4ccc(C(C)(C)C)cc4)c4ccc(C(C)(C)C)cc4)c(C)cc3C)c3cc(C(OC)(c4ccc(C(C)(C)C)cc4)c4ccc(C(C)(C)C)cc4)c(C)cc3C)c(C)cc2C)c(C)cc1C)(c1cc(C(OC)(c2ccc(C(C)(C)C)cc2)c2ccc(C(C)(C)C)cc2)c(C)cc1C)c1cc(C(OC)(c2ccc(C(C)(C)C)cc2)c2ccc(C(C)(C)C)cc2)c(C)cc1C" ?
no

Record lookup: outcome of this test for C=C1C(=O)OC2/C=C(\C)CC/C=C(\C)CC(OC(=O)/C(=C/CO)CO)[C@@H]12 (stereo not given in full) ?
no

Per the records of this test, what outcome belongs to COC(=S)OC1CC(n2cnc3c(=O)[nH]cnc32)OC1CO[Si](C)(C)C(C)(C)C (stereo not given) ?
no

Record lookup: outcome of this test for "O=C(c1ccccc1)c1cc(-c2ccccc2)c(-c2ccccc2)[nH]c(=O)c1=O" ?
no

Hi team, can someone confirm the assay call for "COC[C@H]1C(=O)NCC(=O)N2N=CCC[C@H]2C(=O)N(O)[C@H](C)C(=O)O[C@@H](C(C)C)[C@H](NC(=O)[C@@](C)(O)[C@]2(O)CC[C@@H](CC(C)C)[C@H](C)O2)C(=O)N2NCCC[C@@H]2C(=O)N1O" ?
yes

Origin of values: ChEMBL document CHEMBL1201862
